These measurements were taken from patent US7271161B2.

Provide the reported IC50 of each item.
System: Human 2780CP cell line
test-description: MTT cytotoxicity assay, cisplatin-resistant ovarian 2780CP cells, with or without BSO
Assay type: cell-based
applied-conditions: +10 μM BSO; read-out: IC50 (μM) vs. 2780CP +10 μM BSO
Your answer is read as µM, so omit the unit and give the number.

So what's the measured IC50 for this one? [NH2][Pt]([Cl])([Cl])[NH]C1CCCCCCC1
5.97

Which IC50 reading was recorded for the compound [NH2][Pt]([Cl])([Cl])[N]1CCC1 ?
18.7

IC50 lookup needed for [NH2][Pt]([NH2])([Cl])[Cl] , thanks.
82

// lookup IC50 for [NH2][Pt]([Cl])([Cl])[NH]C1CC1
62.2

Which IC50 value is on record for [NH2][Pt]([Cl])([Cl])[NH]C1CCCCC1 ?
6.98

Which measured IC50 value corresponds to [Cl][Pt]1([Cl])([Cl])([Cl])[NH][C@@H]2CCCC[C@H]2[NH]1 (racemic) ?
34.9

Consider the compound [Cl][Pt]1([Cl])[NH][C@@H]2CCCC[C@H]2[NH]1 and give its measured IC50.
3.69

----------
Answer each item with its documented IC50.
Test system: Human A2780 cell line
test-description: MTT cytotoxicity assay, cisplatin-sensitive ovarian A2780 cells, with or without BSO
Type: cell-based
applied-conditions: +10 μM BSO (MTC), 24 hr BSO; read-out: IC50 (μM) vs. A2780 +10 μM BSO (MTC)
Write the number in µM without appending the unit.

Given the molecule [NH2][Pt]([Cl])([Cl])([Cl])([Cl])[NH]C1CCCCC1 , what is its reported IC50?
0.72

Any idea what IC50 was measured for [NH2][Pt]([Cl])([Cl])[N]1CCC1 ?
3.02

Please give the measured IC50 for this molecule: [NH2][Pt]([OH])([OH])([Cl])([Cl])[NH]C1CCCCC1
3.07
